# EXPERIMENTAL SYSTEM: VAV1 (Homo sapiens, UniProt P15498+Q96SW2)
# Construct: A heterozygous VAV1 C-terminal HiBiT knock-in pool was generated at Monte Rosa Therapeutics from a clonal Jurkat cell; endogenous in cells; host or cells: Jurkat clone stably expressing LgBiT, homozygous GSPT1-G575N; heterozygous VAV1-HiBiT knock-in pool
# EXPERIMENT: VAV1 degradation activity, VAV1-HiBiT knock-in Jurkat luminescence assay (Example A, Table 1)
# Assay type: cell-based
# CONDITION: VAV1-HiBiT knock-in Jurkat cells, luminescence read at 6 and 24 hours; read-out: VAV1 DC50
Lab note: anything with DC50 below 40 nM is marked rule met; values at 40 nM or higher are marked rule not met.

Request: Lab note: confirm whether the reported DC50 for this compound is below 40 nM, equality not counting. compound: O=C1CCC(c2cccc(-c3ccc(OCc4cccnc4)cc3)c2Cl)C(=O)N1 (stereo not shown) [Compound 123]
Result: rule met

Request: Lab note: confirm whether the reported DC50 for this compound is below 40 nM, equality not counting. compound: CN1CC(=O)N(Cc2ccc(-c3cccc(C4CCC(=O)NC4=O)c3Cl)cc2)c2cccnc21 (stereo not shown) [Compound 255]
Result: rule met
